conditions: buffer; pH 7.4; 200.0 µM

molecule	qualifying_sign	solubility kinetic (µg/mL)
Cc1ccc(CC(CC(=O)O)C(=O)Nc2ccc(Cl)cc2)cc1 (stereo unspecified)	=	48.6
O=C(CNS(=O)(=O)c1ccc(F)cc1)Nc1ccccc1	=	44.1
Cc1onc(-c2ccccc2)c1C(=O)N1CCN(c2ncccn2)CC1	>	52.4
O=C1C=C(NCCOC23CC4CC(CC(C4)C2)C3)C2(CCCCC2)O1	=	4
COCC(C)N1C(=O)Cc2c1nc(N)c1c(N)nc(N3CCN(c4ccccc4F)CC3)c(C#N)c21 (stereo unspecified)	=	1.7
COc1cc(C(=O)O)c([N+](=O)[O-])c(OC)c1OC	>	38.6
Cc1ccc(OCCNC(=O)c2cccc(C)c2)cc1	=	29
NC(=O)C1CCN(C(=O)/C=C/c2ccccc2[N+](=O)[O-])CC1	>	45.5
Cc1cnc(C(=O)Nc2ccc(N3CCCCC3)cc2)cn1	=	4.2
CNC(=O)CCCN1C(=O)c2ccccc2Sc2ncccc21	>	49.1
c1ccc2nc(-c3ccc(-n4ccnc4)cc3)ccc2c1	=	6.2
